These measurements were taken from the supplement of paper PMC7411054.

Below: a set of entries, each annotated with reported phenotypically active.
system: A549-CANX-COX4; test: phenotypically active (imaging signature differs from DMSO and reproducible) at any of 0.3-9 uM (binary (1 = active, 0 = inactive)); higher = active; conditions: treatment time: 24 h
Structures can show the parent of a compound that is named as a salt.

- compound: "O=C1C[C@@H]2OCC=C3C[N+]4([O-])CC[C@]56c7ccccc7N1[C@H]5[C@H]2[C@H]3C[C@@H]64 (stereo partly drawn)"
  phenotypically active: "0 (inactive)"
- compound: "C[C@@]12C(=O)OC(=O)[C@]1(C)[C@H]1CC[C@@H]2O1"
  phenotypically active: "1 (active)"
- compound: "O=C1CCC[C@@H]2[C@H]3CCCN4CCC[C@@H](CN12)[C@@H]34"
  phenotypically active: "0 (inactive)"
- compound: "c1ccc([C@@H]2C[C@H]2NC2CCNCC2)cc1 [GSK LSD 1 dihydrochloride]"
  phenotypically active: "0 (inactive)"
- compound: "O=C1CN=C(c2ccccc2)c2cc(Cl)ccc2N1CC(F)(F)F"
  phenotypically active: "0 (inactive)"
- compound: "N[C@@H]1C[C@H]1c1cc(F)cc(F)c1OCc1ccccc1"
  phenotypically active: "0 (inactive)"
- compound: "C=C[C@]12CN(C)[C@@H]3[C@H]4CO[C@H](C[C@H]41)[C@]1(C(=O)Nc4ccccc41)[C@@H]32"
  phenotypically active: "0 (inactive)"
- compound: "C[C@]12CC[C@H]3[C@@H](CC[C@]4(O)C[C@@H](O)CC[C@]34C=O)[C@@]1(O)CC[C@@H]2C1=CC(=O)OC1"
  phenotypically active: "1 (active)"
